System: SK-MEL-5
Experiment: NCI tumour cell line growth inhibition, 48 h
Activity calls are given as the source filed them. No stated cut-off is given here; in the data, active = GI50 up to about 1.1 µM and inactive = higher.
Field 'call' accepts active, inactive

The following compounds have reported results that may help.
| Compound | Classification |
| --- | --- |
| CCOC(=O)C(=O)Nc1ccccc1CC | inactive |
| CCOC(=O)/C(=N/Nc1ccccc1)N1C(=S)N(C)N=C(C)C=C1S | inactive |
| Cc1cc2c(Br)cc(Br)c(O)c2nc1C(=O)c1ccccc1 | inactive |

q: I would be grateful if you could indicate the recorded call for OC1C2[C@@H](O)CCCN2C[C@@H](O)[C@H]1O (stereo partly drawn) .
a: inactive

q: I would be grateful if you could indicate the recorded call for `CCOC(=O)c1c(C(F)(F)F)oc2c1ccc1nc3nonc3nc12` .
a: inactive

###

Test system: HCT-15
Hi! Could you tag entries with GI50 below 20 µM as fulfilled, and those at or above as not fulfilled? Much appreciated.

| Molecule | Classification |
| --- | --- |
| O=C(O)CCC1CCc2cccc3occ1c23 (stereo unspecified) | not fulfilled |
| O=C(Nc1cc(C(F)(F)F)ccc1Cl)C(=O)C(C(=O)c1ccc2ccccc2c1)C1OC(=O)c2ccccc21 (stereo unspecified) | fulfilled |
| CN(C)CCN(C)c1ccc2c(=O)n(CCN(C)C)c(=O)n3c4ccccc4c(=O)c1c23 | fulfilled |
| CC1=C(C(=O)Nc2ccccc2)C(c2ccc3c(c2)OCO3)C(C(=O)Nc2ccccc2)=C(C)N1 | not fulfilled |
| O=C(/C(=C/c1ccc(O)cc1)c1ccccc1)c1ccccc1 | fulfilled |
| CC1(C)OC2C(O)C(CO)OC2(C(F)F)O1 (stereo unspecified) | not fulfilled |
| COc1ccc(CC2c3cc(OC)c(OC)c(OC)c3CC[N+]2(C)C)cc1Oc1ccc(CC2c3cc4c(c(OC)c3CC[N+]2(C)C)OCO4)cc1 (stereo unspecified) | not fulfilled |
| COc1ccc(OCc2ccc3nc(-c4ccccc4)c(Cl)nc3c2)cc1 | not fulfilled |

q: Does `C(/C=C/N1CCCC1)=C\c1nc(N2CCCC2)c2ccccc2n1` have GI50 strictly under 20 µM?
a: fulfilled

q: Does CN(C(=O)C1CC1)C1C2CN3CCC(O2)C13 (stereo unspecified) have GI50 strictly under 20 µM?
a: not fulfilled

q: Does `O=C(O)CSc1nnc(COc2ccc(Cl)cc2)n1-c1ccccc1` have GI50 strictly under 20 µM?
a: not fulfilled

q: Does COC(=O)c1ccc2c(c1)C(NC(C)=O)CCc1cc(OC)c(OC)c(OC)c1-2 (stereo unspecified) have GI50 strictly under 20 µM?
a: fulfilled

q: Does `COC(=O)[C@@H](NC(=O)N(Cc1ccccc1)C[C@H](CC(C)C)NC(=O)[C@@H](NC(=O)OC(C)(C)C)C(C)C)C(C)C` have GI50 strictly under 20 µM?
a: not fulfilled

q: Does `O=C(C(Cl)=C(N1CCCCC1)N1CCCCC1)C(Cl)Cl` have GI50 strictly under 20 µM?
a: not fulfilled

q: Does `CN1CCc2c(sc3nc(S)nc(S)c23)C1` have GI50 strictly under 20 µM?
a: not fulfilled

q: Does `Cc1cc(NS(=O)(=O)c2ccc(NC(=O)c3ccc(Cl)c4c(Nc5ccc(S(=O)(=O)Nc6cc(C)on6)cc5)c5ccccc5nc34)cc2)no1` have GI50 strictly under 20 µM?
a: fulfilled

q: Does COc1cccc(C2SCC(=O)N2c2ccc(-n3c(-c4ccccc4)nc4ccccc4c3=O)cc2)c1OC (stereo unspecified) have GI50 strictly under 20 µM?
a: not fulfilled

Reference source: ChEMBL document CHEMBL1201862
